# measured_target: apo-SdhA (Escherichia coli, UniProt P0AC41)
# Sequence (P0AC41 whole entry): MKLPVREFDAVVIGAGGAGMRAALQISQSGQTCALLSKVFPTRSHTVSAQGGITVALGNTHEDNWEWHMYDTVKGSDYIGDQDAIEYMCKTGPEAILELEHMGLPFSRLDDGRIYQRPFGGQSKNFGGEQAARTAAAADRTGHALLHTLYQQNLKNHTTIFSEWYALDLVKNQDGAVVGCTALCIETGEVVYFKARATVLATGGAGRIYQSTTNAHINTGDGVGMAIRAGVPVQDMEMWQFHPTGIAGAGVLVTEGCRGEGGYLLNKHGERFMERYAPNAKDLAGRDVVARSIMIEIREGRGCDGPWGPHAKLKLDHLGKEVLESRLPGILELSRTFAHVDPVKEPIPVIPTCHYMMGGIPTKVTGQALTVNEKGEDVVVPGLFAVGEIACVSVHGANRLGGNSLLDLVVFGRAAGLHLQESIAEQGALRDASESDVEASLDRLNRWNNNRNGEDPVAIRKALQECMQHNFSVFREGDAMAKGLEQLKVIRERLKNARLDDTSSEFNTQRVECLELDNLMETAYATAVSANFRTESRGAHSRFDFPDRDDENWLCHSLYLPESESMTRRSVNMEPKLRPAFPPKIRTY
# protocol_notes: Determination of Kd for FAD by ultrafiltration
# Type: binding
# Set-up: His6 (N); made in house; host or cells: E. coli RP437 ΔsdhE (RP-E), plasmid pCA24N-SdhA
# condition_info: without SdhE; 50 mM Hepes pH 7.0, 21 °C; read-out: Estimated apparent Kd for FAD, apo-SdhA alone
measurement_label: Kd (µM)

| structure_string | measurement_label | output_unit | result_value |
| --- | --- | --- | --- |
| Cc1cc2nc3c(=O)[nH]c(=O)nc-3n(C[C@H](O)[C@H](O)[C@H](O)COP(=O)(O)OP(=O)(O)OC[C@H]3O[C@@H](n4cnc5c(N)ncnc54)[C@H](O)[C@@H]3O)c2cc1C | Kd | µM | 14.4 |
